Assay: AUC in CD-1 mouse at 1 mg/kg, po
Format: ADME, organism-based
Settings: in vivo
Entries and their AUC
Please respond with the number in µM·h and leave the unit unwritten.

Query: Endpoint output: AUC of O=C(O)[C@H]1C2CCC(CC2)[C@@H]1Nc1nc(-c2c[nH]c3ncc(F)cc23)nc2sccc12 . Value?
Reply: 1.35

Query: Item O=C(O)[C@H]1C2CCC(CC2)[C@@H]1Nc1nc(-c2c[nH]c3ncc(F)cc23)nc2ccsc12 has what recorded AUC?
Reply: 0.69

Query: Need AUC, item O=C(O)[C@H]1C2CCC(CC2)[C@@H]1Nc1nc(-c2c[nH]c3ncc(F)cc23)nc2cscc12
Reply: 0.0488

====

Test: Oral bioavailability in CD-1 mouse at 1 mg/kg
Format: ADME, organism-based
Conditions: in vivo
Attribute: bioavailability
Provide only the numeric value, understood in %.

>>> df
                               input_smiles  unit_of_measure  reported_result
0  O=C(O)[C@H]1C2CCC(CC2)[C@@H]1Nc1nc(-c2c[nH]c3ncc(F)cc23)nc2ccsc12                %               37

Query: // lookup bioavailability for O=C(O)[C@H]1C2CCC(CC2)[C@@H]1Nc1nc(-c2c[nH]c3ncc(F)cc23)nc2cscc12
Reply: 10

====

Assay: Oral bioavailability in CD-1 mouse at 10 mg/kg
Format: ADME, organism-based
Conditions: in vivo
REPORTED_METRIC: bioavailability (%)
Use % as the unit, but write only the number.

Example compounds with recorded bioavailability:
                                   compound  reported_result
0  O=C(O)[C@H]1C2CCC(CC2)[C@@H]1Nc1nc(-c2c[nH]c3ncc(F)cc23)nc2c1SCC2               71
1  O=C(O)[C@H]1C2CCC(CC2)[C@@H]1Nc1nc(-c2c[nH]c3ncc(F)cc23)ncc1F [PIMODIVIR]              100

# context switch: different compound, same bioavailability
Query: Bench note: what bioavailability did O=C(O)[C@H]1C2CCC(CC2)[C@@H]1Nc1nc(-c2n[nH]c3ncc(F)cc23)nc2c1SCC2 show?
Reply: 57

====

Assay: Tmax in CD-1 mouse at 1 mg/kg, po
Format: ADME, organism-based
Settings: in vivo
REPORTED_METRIC: Tmax (min)
State just the number; it will be interpreted in min.

The examples below pair each entry with its known result.
>>> print(df.to_string())
                               input_smiles  reported_metric  reported_result
0  O=C(O)[C@H]1C2CCC(CC2)[C@@H]1Nc1nc(-c2c[nH]c3ncc(F)cc23)nc2sccc12             Tmax             49.8
1  O=C(O)[C@H]1C2CCC(CC2)[C@@H]1Nc1nc(-c2c[nH]c3ncc(F)cc23)nc2cscc12             Tmax             19.8

# evaluate next
Query: What does the data say about its Tmax? Entry: O=C(O)[C@H]1C2CCC(CC2)[C@@H]1Nc1nc(-c2c[nH]c3ncc(F)cc23)nc2ccsc12
Reply: 24

====

Listed here are compounds together with their documented AUC.
Assay: AUC in CD-1 mouse at 0.5 mg/kg, iv
Type: ADME, organism-based
Conditions: in vivo
The figure you give is taken to be in µM·h; do not add the unit.

>>> print(df.to_string())
                               input_smiles  reported_metric  reported_result
0  O=C(O)[C@H]1C2CCC(CC2)[C@@H]1Nc1nc(-c2c[nH]c3ncc(F)cc23)nc2ccsc12              AUC             1.01

--- query ---
Query: Name the recorded AUC for O=C(O)[C@H]1C2CCC(CC2)[C@@H]1Nc1nc(-c2c[nH]c3ncc(F)cc23)nc2cscc12 .
Reply: 0.252
